- System: SF-539
- EXPERIMENTAL_PROTOCOL: NCI tumour cell line growth inhibition, 48 h
Activity calls are given as the source filed them. No stated cut-off is given here; in the data, active = GI50 up to about 1.1 µM and inactive = higher.
Possible outcomes: active, inactive

COMPOUND	ANSWER_LABEL
Cc1oc2c(Cl)cc(O)c(Cl)c2c2cccc1-2	inactive
CCOC(=O)/C(C#N)=C1/Sc2c(ncn(/N=C/c3ccc(OC)cc3)c2=O)N1c1ccccc1	inactive
COC(=O)C1=CO[C@@H](OC2OC(CO)C(O)C(O)C2O)[C@@H]2[C@H](C)[C@@H](O)[C@@H](O)[C@]12O (some centres not stated)	inactive
CCCNc1ncnc2[nH]ncc12	inactive
CC(C)(C)c1cc(C(=O)Nc2cc(Br)c(Br)cc2S(N)(=O)=O)cc(C(C)(C)C)c1O	inactive
Cn1nc(-c2ccccc2)c(C(=O)/C=C/c2ccccc2)c(N2CCCC2)c1=O	inactive
COc1cc(C2(C)SCCCS2)cc(OC)c1OC	inactive
CCOC(=O)c1ccc(Nc2nc3ccccc3nc2C(=O)OCC)cc1	inactive
CC1=NC(C)(C)N(O)C1(C)C	inactive
CCCCCCCCCc1c(O)c(O)c(CCCCCCCCC)c(CCCCCCCCC)c1CCCCCCCCC	inactive
CC(=O)c1ccc2c(c1)CC1(C2)Cc2cc3c(cc2C1=O)CCC3 (configuration not stated)	inactive
CCNC1CC(C(C)(C)NCC)CC=C1C (configuration not stated)	inactive
O=C(c1ccco1)N(C(=S)N1CCN(c2ccccc2)CC1)c1ccccc1	inactive
O=c1c2c(oc3ccccc13)-c1ccccc1OC2	inactive
COc1nc(C(Cl)(Cl)Cl)c(Cl)c(OC)c1Cl	inactive
CC(=O)OCCn1cnc2nc(Nc3ccccc3)nc(Cl)c21	inactive
N#Cc1c(-c2ccc(Cl)cc2)c(C#N)c(=O)n(NS(=O)(=O)c2ccccc2)c1O	inactive
COc1cc(OC)c(OC)cc1/C=N/N=C(\N)NO	inactive
Clc1ccc(OC2CCO2)cc1Cl (configuration not stated)	inactive
CC(C)(C)C(=O)N(C(=S)OCc1ccccn1)c1ccccc1	inactive
C=CC1(c2ccc3ccccc3c2)OCC(CC)(CC)CO1	inactive
CCOc1cc(C2SCC(=O)N2c2ccc3c(c2)Oc2c(Cl)c4c(c(Cl)c2=N3)Oc2cc(N3C(=O)CSC3c3ccc(O)c(OCC)c3)ccc2N=4)ccc1O (configuration not stated)	inactive
Cc1c2cc[n+](C)cc2c(C)c2c1[nH]c1ccccc12	active
O=C1O[C@H]2C3C4CCC(C4[C@@H]2I)[C@H]13 (some centres not stated)	inactive
O=Cc1cc(O)ccc1Br	inactive
OC1(CCc2ccccc2)COC(C(F)(F)F)(C(F)(F)F)C1 (configuration not stated)	inactive
COc1ccc(Nc2nc(N)c(C(=O)c3c[nH]c4ccccc34)s2)cc1	inactive
COC(=O)C1CCC(=O)C(Sc2ccccc2)C1 (configuration not stated)	inactive
COc1cc(OC)c2c(C)cc(=O)oc2c1	inactive
Cc1c(Cl)cc(C(C)(C)C)c(O)c1Cc1c(C)c(Cl)cc(C(C)(C)C)c1O	inactive
COc1cc2ccnc3c2c(c1OC)CC1CC(O)C(OC)CC31 (configuration not stated)	inactive
Cc1c[nH]c(C(=O)O)c1-c1cccn1-c1ccc(Cl)cc1[N+](=O)[O-]	inactive
